For each record, write down the corresponding inhibition at 1 µM.
Target: IKKβ (Homo sapiens)
Construct: purchased Upstate Biotechnology Inc. 14-485
Sequence (O14920 whole entry): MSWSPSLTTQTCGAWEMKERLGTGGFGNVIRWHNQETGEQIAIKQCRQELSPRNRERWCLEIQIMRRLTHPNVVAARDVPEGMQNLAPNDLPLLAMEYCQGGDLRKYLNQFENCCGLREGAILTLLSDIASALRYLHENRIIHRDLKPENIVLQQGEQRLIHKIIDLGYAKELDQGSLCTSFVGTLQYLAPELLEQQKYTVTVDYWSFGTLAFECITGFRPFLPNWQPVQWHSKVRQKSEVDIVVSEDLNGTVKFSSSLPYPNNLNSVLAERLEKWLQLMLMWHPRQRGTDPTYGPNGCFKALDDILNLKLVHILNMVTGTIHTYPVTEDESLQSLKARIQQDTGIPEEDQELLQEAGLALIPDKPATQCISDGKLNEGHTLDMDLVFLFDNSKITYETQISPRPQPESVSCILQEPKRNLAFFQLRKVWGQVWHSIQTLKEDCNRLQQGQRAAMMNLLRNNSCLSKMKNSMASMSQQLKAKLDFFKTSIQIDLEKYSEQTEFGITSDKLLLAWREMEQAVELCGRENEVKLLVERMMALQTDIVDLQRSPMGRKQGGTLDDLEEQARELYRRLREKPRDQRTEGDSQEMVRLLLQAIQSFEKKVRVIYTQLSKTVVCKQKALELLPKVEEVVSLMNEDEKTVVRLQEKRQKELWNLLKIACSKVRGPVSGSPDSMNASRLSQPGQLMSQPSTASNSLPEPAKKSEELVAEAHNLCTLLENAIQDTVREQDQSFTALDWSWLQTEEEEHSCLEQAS
Assay: IKKβ inhibition assay by fluorescence polarization (IMAP kit)
Assay type: biochemical
Conditions: test compound at 1 μM; inhibition rate exceeding 100% is indicated as 100%
Kindly provide the numeric value in % only, without the unit symbol.

[ask] inhibition at 1 µM lookup needed for NC(=O)Nc1[nH]c2cc(OCC3CC3)ccc2c1C(N)=O [Compound No. 3-2] , thanks.
[reply] 91

[ask] Any idea what its inhibition at 1 µM is? The molecule is CC(=O)Nc1ccc(Oc2ccc3c(C(N)=O)c(NC(N)=O)[nH]c3c2)cc1 [Compound No. 6-1]
[reply] 98

[ask] Query (molecule): NC(=O)Nc1[nH]c2cc(Oc3ccnc(Cl)c3)ccc2c1C(N)=O [Compound No. 4-3] ; field requested: inhibition at 1 µM
[reply] 89

[ask] // lookup inhibition at 1 µM for NC(=O)Nc1[nH]c2cc(Oc3ccc(Cl)cc3)ccc2c1C(N)=O [Compound No. 9-1]
[reply] 92

[ask] What value of inhibition at 1 µM has been reported for the following molecule? COc1c(-c2ccoc2)cc(F)c2c(C(N)=O)c(NC(N)=O)[nH]c12 [Compound No. 8-3]
[reply] 87

[ask] Which inhibition at 1 µM is listed for NC(=O)Nc1[nH]c2cc(O)ccc2c1C(N)=O [Compound No. 2-1] ?
[reply] 90

[ask] Returns the measured inhibition at 1 µM for the input molecule. Input: NC(=O)Nc1[nH]c2cc(Oc3ccc([N+](=O)[O-])cc3)ccc2c1C(N)=O [Compound No. 4-1]
[reply] 100

[ask] Value lookup for inhibition at 1 µM; key = Cc1cc([N+](=O)[O-])ccc1Oc1ccc2c(C(N)=O)c(NC(N)=O)[nH]c2c1 [Compound No. 4-6]
[reply] 97
